System: SW480 (Colorectal carcinoma) cell line
MEASUREMENT_NOTES: MTT cytotoxic assay, SW480
Format: cell-based
STUDY_CONDITIONS: Homo sapiens, 72 h, 3 repetitions, read-out: IC50 ± SD SW480
# note: boundary value 60 µM maps to not fulfilled; IC50 below it maps to fulfilled

{"INPUT_SMILES": "O=c1c2cc(Br)ccc2nc(SCc2ccc(Br)cc2)n1-c1ccccc1", "LABEL_CLASS": "not fulfilled"}
{"INPUT_SMILES": "Cc1cccc(CSc2nc3ccc(Br)cc3c(=O)n2-c2ccccc2)c1", "LABEL_CLASS": "not fulfilled"}
{"INPUT_SMILES": "O=c1c2cc(Br)ccc2nc(SCc2ccccc2)n1-c1ccccc1", "LABEL_CLASS": "not fulfilled"}
{"INPUT_SMILES": "CCCCCSc1nc2ccc(Br)cc2c(=O)n1-c1ccccc1", "LABEL_CLASS": "fulfilled"}
{"INPUT_SMILES": "CCCCSc1nc2ccc(Br)cc2c(=O)n1-c1ccccc1", "LABEL_CLASS": "fulfilled"}
{"INPUT_SMILES": "Cc1ccc(CSc2nc3ccc(Br)cc3c(=O)n2-c2ccccc2)cc1", "LABEL_CLASS": "not fulfilled"}
